// data source = ChEMBL document CHEMBL1201862

Give measured GI50 for each item. Keep answers brief.
Tested on: SK-MEL-28
Test: NCI tumour cell line growth inhibition, 48 h
The source made the active and inactive calls. Cut-off read from the data, not from the text of the source: active = GI50 up to about 1.1 µM and inactive = higher.

# get_value(readout= GI50, system= SK-MEL-28) for N#Cc1c(O)n(-c2ccccc2)c(=O)c2c(N)n[nH]c12
> 100 µM (inactive)

Form field: GI50 recorded for O=C(O)c1nn[nH]c1S with SK-MEL-28 (enter value)
> 100 µM (inactive)

Request: GI50, test system SK-MEL-28, entry [O-][S+]1Cc2ccccc2CSS1 (stereo not given)
13.8 µM (inactive)

State its GI50 on SK-MEL-28: O=C(O)c1ccccc1[Se][Se]c1ccccc1C(=O)O
38.1 µM (inactive)

Recall the recorded GI50 for CC(=O)N[C@@H](Cc1ccc(O)cn1)C(=O)NCc1cccc(Cl)c1 with SK-MEL-28 and state it.
> 100 µM (inactive)

// lookup GI50 | system=SK-MEL-28 | key= COc1ccc(/N=N/c2c(N)nn(C)c2N)cc1
> 100 µM (inactive)

// lookup GI50 | system=SK-MEL-28 | key= Cc1cc(C)c(N)c(CO)c1
> 100 µM (inactive)

Short answer please: GI50, SK-MEL-28, entry COC(=O)C[C@@H]1C(C)(C)[C@@H]2O[C@@]34C[C@@H]2C(=O)[C@]1(C)[C@H]3CC[C@@]1(C)[C@H](c2ccoc2)OC(=O)C[C@]14O
> 100 µM (inactive)

Field: GI50 (SK-MEL-28). Entry: CC1CC[C@@]2(OC1)OC1C[C@H]3[C@@H]4C/C(=N\N(C)C)[C@@]5(O)CC(O)CC[C@]5(C)[C@H]4CC[C@]3(C)C1[C@@H]2C (stereo not given in full)
> 100 µM (inactive)

Requested read-out GI50, target or system SK-MEL-28, entry COc1ccc(-c2nc(N)c(C#N)c3c2CCSc2ccc(C)cc2-3)cc1OC
39.7 µM (inactive)
